Where these numbers come from: ChEMBL document CHEMBL1828605

Reported pIC50 values are given for each entry in this list.
# System: CCRF-CEM
# PROCEDURE DETAILS: Cytotoxicity against human CEM cells after 6 days by trypan blue exclusion assay
# Assay type: cell-based
# CONDITION NOTES: 144 h
pIC50: −log10 of the molar value.

Example entries begin here.
COMPOUND	TEST SYSTEM	EXPERIMENTAL RESULT
Nc1ccn([C@@H]2CS[C@H](CO)O2)c(=O)n1	CCRF-CEM	< 4.00
CCOC(=O)[C@H](C)NP(=O)(OC[C@@H]1O[C@H](n2cc(C)c(=O)[nH]c2=O)C[C@H]1N=[N+]=[N-])Oc1ccccc1 (some centres not stated)	CCRF-CEM	< 4.00
CCOC(=O)[C@H](C)NP(=O)(OC[C@@H]1O[C@H](n2cnc3c(Cl)ncnc32)C[C@H]1N=[N+]=[N-])Oc1ccccc1 (some centres not stated)	CCRF-CEM	5.24

### Prompt Give the reported pIC50 for CCOC(=O)[C@H](C)NP(=O)(OC[C@@H]1O[C@H](n2cnc3c(O)nc(N)nc32)C[C@H]1N=[N+]=[N-])Oc1ccccc1 (some centres not stated) (system: CCRF-CEM).
### Response < 4.00

### Prompt Now the same for CCOC(=O)[C@H](C)NP(=O)(OC[C@@H]1O[C@H](n2cnc3c(Cl)nc(N)nc32)C[C@H]1N=[N+]=[N-])Oc1ccccc1 (some centres not stated)
### Response 4.64

### Prompt Can you check CCOC(=O)[C@H](C)NP(=O)(OC[C@@H]1O[C@H](n2cnc3c(N)nc(N)nc32)C[C@H]1N=[N+]=[N-])Oc1ccccc1 (some centres not stated) next?
### Response < 4.00

### Prompt Now try CCOC(=O)[C@H](C)NP(=O)(OC[C@@H]1O[C@H](n2cnc3c(N)ncnc32)C[C@H]1N=[N+]=[N-])Oc1ccccc1 (some centres not stated) .
### Response < 4.00

###

# TEST SYSTEM: Human immunodeficiency virus type 1 reverse transcriptase (Human immunodeficiency virus 1, UniProt Q72547)
MEASURED METRIC: Kd
Your reply should be a number followed by the unit it is expressed in.

Example results:
MOLECULE	Kd
[N-]=[N+]=N[C@@H]1C[C@@H](n2cnc3c(O)nc(N)nc32)O[C@H]1COP(=O)(O)OP(=O)(O)OP(=O)(O)O	230 nM
Nc1ccn([C@H]2C[C@H](O)[C@@H](CO)O2)c(=O)n1 [DOXECITINE]	1100 nM

// next entry
### Prompt Entry [N-]=[N+]=N[C@@H]1C[C@@H](n2cnc3c(N)nc(N)nc32)O[C@H]1COP(=O)(O)OP(=O)(O)OP(=O)(O)O has what Kd?
### Response 2300 nM

###

# TEST SYSTEM: UniProt Q72547
# PROCEDURE DETAILS: Ratio Kpol to Kd for wild type HIV 1 reverse transcriptase
Please use t whenever Ratio is not below 0.06 µM⁻¹ min⁻¹, and f whenever it is.

Consider the following illustrative entries.
COMPOUND	CLASSIFICATION
Nc1ccn([C@H]2C[C@H](O)[C@@H](CO)O2)c(=O)n1	t
[N-]=[N+]=N[C@@H]1C[C@@H](n2cnc3c(N)ncnc32)O[C@H]1COP(=O)(O)OP(=O)(O)OP(=O)(O)O	f
Nc1ncnc2c1ncn2[C@H]1C[C@H](O)[C@@H](COP(=O)(O)OP(=O)(O)OP(=O)(O)O)O1	t

### Prompt Check the entry Nc1ccn([C@@H]2CS[C@H](COP(=O)(O)OP(=O)(O)OP(=O)(O)O)O2)c(=O)n1 [LAMIVUDINE TRIPHOSPHATE] : does Ratio equal or exceed 0.06 µM⁻¹ min⁻¹?
### Response t

### Prompt What do you get for [N-]=[N+]=N[C@@H]1C[C@@H](n2cnc3c(N)nc(N)nc32)O[C@H]1COP(=O)(O)OP(=O)(O)OP(=O)(O)O ?
### Response t

###

# Tested on: Hepatitis B virus
# PROCEDURE DETAILS: Antiviral activity against Hepatitis B virus infected in human HepAD38 assessed as reduction of viral DNA level on day 7 by quantitative-PCR assay analysis
# Type: functional, organism-based
pEC50: −log10 of the molar value.
MEASURED METRIC: pEC50

COMPOUND	pEC50
Cc1cn([C@H]2C[C@H](N=[N+]=[N-])[C@@H](CO)O2)c(=O)[nH]c1=O (stereo in doubt) [ZIDOVUDINE]	< 5.00

Note: attention shifts to another entry.
### Prompt # input compound: Cc1cn([C@H]2C[C@H](N=[N+]=[N-])[C@@H](CO)O2)c(=O)[nH]c1=O (stereo in doubt; 27) [ZIDOVUDINE] ; wanted: its pEC50
### Response < 4.00
